- ASSAYED SYSTEM: Protein-S-isoprenylcysteine O-methyltransferase (Rattus norvegicus, UniProt Q9WVM4)
- Sequence (Q9WVM4 whole entry): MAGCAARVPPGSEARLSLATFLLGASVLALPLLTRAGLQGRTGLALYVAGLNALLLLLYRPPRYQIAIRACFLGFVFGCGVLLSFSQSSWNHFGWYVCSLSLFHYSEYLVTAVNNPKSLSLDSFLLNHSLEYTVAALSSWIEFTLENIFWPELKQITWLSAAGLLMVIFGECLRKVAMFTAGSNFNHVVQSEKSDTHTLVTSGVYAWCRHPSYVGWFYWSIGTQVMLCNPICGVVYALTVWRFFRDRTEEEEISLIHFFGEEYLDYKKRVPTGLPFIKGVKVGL
- ASSAY: Ability to inhibit prenylated protein methyltransferase (PPMTase) in cell free systems
Please provide measured pKi for the entries that follow.
The scale used: pKi is minus the common logarithm of the concentration in molar units.

response.value for CC(C)=CCC/C(C)=C/CC/C(C)=C/CNc1ccc(Cl)c(C(=O)O)c1 (field: pKi) = 5.10

The recorded pKi for CC(C)=CCC/C(C)=C/CC/C(C)=C/CSc1ccc(N)cc1C(=O)O is 4.14

Entry CC(C)=CCC/C(C)=C/CC/C(C)=C/CSc1ncccc1C(=O)O , pKi reported as 4.83

Recorded pKi (molecule CC(C)=CCC/C(C)=C/CC/C(C)=C/CSc1ccccc1C(=O)O [SALIRASIB] ): 5.55

The reported measurements were obtained from ChEMBL document CHEMBL1128294.
